Each recorded value in this set is attributed to the supplement of paper PMC10307832.

- Tested on: NCI-H1975
- procedure.text: relative viability (nuclei count vs DMSO), 5 days (fraction); higher = more cells survive
- condition: first compound 500 µM
outcome.measure: relative viability
Answer with a bare number; do not write a unit.

Qu. Which relative viability is listed for O=C(O)CCCCC(CCSCc1ccccc1)SCc1ccccc1 (stereo not given) [CPI-613] + CC(=O)c1c(C)c2cnc(Nc3ccc(N4CCNCC4)cn3)nc2n(C2CCCC2)c1=O [Palbociclib] (partner 0.5 µM) ?
Ans. 0.0655

Qu. Please give the result for O=C(O)CCCCC(CCSCc1ccccc1)SCc1ccccc1 (stereo not given) [CPI-613] + Nc1ncn([C@H]2C[C@H](O)[C@@H](CO)O2)c(=O)n1 [Decitabine] (partner 2 µM) too.
Ans. 0.0581

* * *

Entries and their relative viability values follow.
- System: LU99A
- procedure.text: relative viability (nuclei count vs DMSO), 5 days (fraction); higher = more cells survive
- condition: first compound 15.81 µM
Answer with a bare number; do not write a unit.

Here is how some compounds turned out for relative viability.
>>> observed_measurement("O=C(O)CCCCC(CCSCc1ccccc1)SCc1ccccc1 (stereo not drawn) [CPI-613] + CS(=O)(=O)CCNCc1ccc(-c2ccc3ncnc(Nc4ccc(OCc5cccc(F)c5)c(Cl)c4)c3c2)o1 [Lapatinib] (partner 2 µM)")
0.918
>>> observed_measurement("O=C(O)CCCCC(CCSCc1ccccc1)SCc1ccccc1 (stereo not drawn) [CPI-613] + Cc1cc(Nc2cc(N3CCN(C)CC3)nc(Sc3ccc(NC(=O)C4CC4)cc3)n2)n[nH]1 [Tozasertib] (partner 0.1 µM)")
0.298

Qu. Which relative viability is listed for O=C(O)CCCCC(CCSCc1ccccc1)SCc1ccccc1 (stereo not drawn) [CPI-613] + CC1(C)CCC(c2ccc(Cl)cc2)=C(CN2CCN(c3ccc(C(=O)NS(=O)(=O)c4ccc(N[C@H](CCN5CCOCC5)CSc5ccccc5)c(S(=O)(=O)C(F)(F)F)c4)cc3)CC2)C1 [Navitoclax] (partner 0.5 µM) ?
Ans. 0.77

* * *

Entries and their relative viability values follow.
- Test system: NCI-H838
- procedure.text: relative viability (nuclei count vs DMSO), 5 days (fraction); higher = more cells survive
- condition: first compound 0.0002 µM
Answer with a bare number; do not write a unit.

>>> observed_measurement("CC(=O)O[C@@]12CO[C@@H]1C[C@H](O)[C@@]1(C)C(=O)[C@H](O)C3=C(C)[C@@H](OC(=O)[C@H](O)[C@@H](NC(=O)OC(C)(C)C)c4ccccc4)C[C@@](O)([C@@H](OC(=O)c4ccccc4)[C@H]21)C3(C)C [Docetaxel] + CS(=O)(=O)CCNCc1ccc(-c2ccc3ncnc(Nc4ccc(OCc5cccc(F)c5)c(Cl)c4)c3c2)o1 [Lapatinib] (partner 2 µM)")
0.963
>>> observed_measurement("CC(=O)O[C@@]12CO[C@@H]1C[C@H](O)[C@@]1(C)C(=O)[C@H](O)C3=C(C)[C@@H](OC(=O)[C@H](O)[C@@H](NC(=O)OC(C)(C)C)c4ccccc4)C[C@@](O)([C@@H](OC(=O)c4ccccc4)[C@H]21)C3(C)C [Docetaxel] + N=C(N)NC(=N)NCCc1ccccc1 [Phenformin] (partner 250 µM)")
0.533

// next item, relative viability requested
Qu. Which relative viability is listed for CC(=O)O[C@@]12CO[C@@H]1C[C@H](O)[C@@]1(C)C(=O)[C@H](O)C3=C(C)[C@@H](OC(=O)[C@H](O)[C@@H](NC(=O)OC(C)(C)C)c4ccccc4)C[C@@](O)([C@@H](OC(=O)c4ccccc4)[C@H]21)C3(C)C [Docetaxel] + C[C@]1(O)C[C@@H](c2nc(-c3ccc4ccc(-c5ccccc5)nc4c3)c3c(N)nccn32)C1 [Linsitinib] (partner 1 µM) ?
Ans. 0.98

* * *

- Tested on: NCI-H1793
- procedure.text: relative viability (nuclei count vs DMSO), 5 days (fraction); higher = more cells survive
- condition: first compound 0.1581 µM
outcome.measure: relative viability
Answer with a bare number; do not write a unit.

Here is how some molecules turned out for relative viability.
>>> observed_measurement("Nc1ccn([C@@H]2O[C@H](CO)[C@@H](O)[C@@H]2O)c(=O)n1 [Cytarabine] + NC(=O)Nc1cc(-c2cccc(F)c2)sc1C(=O)N[C@H]1CCCNC1 [AZD7762] (partner 0.2 µM)")
0.149
>>> observed_measurement("Nc1ccn([C@@H]2O[C@H](CO)[C@@H](O)[C@@H]2O)c(=O)n1 [Cytarabine] + CS(=O)(=O)N1CCN(Cc2cc3nc(-c4cccc5[nH]ncc45)nc(N4CCOCC4)c3s2)CC1 [Pictilisib] (partner 1 µM)")
0.307
>>> observed_measurement("Nc1ccn([C@@H]2O[C@H](CO)[C@@H](O)[C@@H]2O)c(=O)n1 [Cytarabine] + CS(=O)(=O)CCNCc1ccc(-c2ccc3ncnc(Nc4ccc(OCc5cccc(F)c5)c(Cl)c4)c3c2)o1 [Lapatinib] (partner 2 µM)")
0.451

// next item, relative viability requested
Qu. Which relative viability is listed for Nc1ccn([C@@H]2O[C@H](CO)[C@@H](O)[C@@H]2O)c(=O)n1 [Cytarabine] + Cc1cc(Nc2cc(N3CCN(C)CC3)nc(Sc3ccc(NC(=O)C4CC4)cc3)n2)n[nH]1 [Tozasertib] (partner 0.1 µM) ?
Ans. 0.291

* * *

- System: NCI-H1355
- procedure.text: relative viability (nuclei count vs DMSO), 5 days (fraction); higher = more cells survive
- condition: first compound 0.01581 µM
outcome.measure: relative viability
Answer with a bare number; do not write a unit.

>>> observed_measurement("Nc1ccn([C@@H]2O[C@H](CO)[C@@H](O)[C@@H]2O)c(=O)n1 [Cytarabine] + C[C@]1(O)C[C@@H](c2nc(-c3ccc4ccc(-c5ccccc5)nc4c3)c3c(N)nccn32)C1 [Linsitinib] (partner 1 µM)")
0.8

Qu. Which relative viability is listed for Nc1ccn([C@@H]2O[C@H](CO)[C@@H](O)[C@@H]2O)c(=O)n1 [Cytarabine] + CS(=O)(=O)N1CCN(Cc2cc3nc(-c4cccc5[nH]ncc45)nc(N4CCOCC4)c3s2)CC1 [Pictilisib] (partner 1 µM) ?
Ans. 0.392

Qu. Please give the result for Nc1ccn([C@@H]2O[C@H](CO)[C@@H](O)[C@@H]2O)c(=O)n1 [Cytarabine] + Nc1nc2[nH]cc(CCc3ccc(C(=O)N[C@@H](CCC(=O)O)C(=O)O)cc3)c2c(=O)[nH]1 [Pemetrexed] (partner 0.2 µM) too.
Ans. 0.988

Qu. Please give the result for COc1cc2nccc(Oc3ccc(NC(=O)Nc4cc(C)on4)c(Cl)c3)c2cc1OC [Tivozanib] + CC(C)C[C@H](NC(=O)[C@H](Cc1ccccc1)NC(=O)c1cnccn1)B(O)O [Bortezomib] (partner 0.002 µM) too.
Ans. 1.17

Qu. Please give the result for Nc1ccn([C@@H]2O[C@H](CO)[C@@H](O)[C@@H]2O)c(=O)n1 [Cytarabine] + O=C(CCCCCCC(=O)Nc1ccccc1)NO [Vorinostat] (partner 1 µM) too.
Ans. 0.638

Qu. Please give the result for COc1cc2nccc(Oc3ccc(NC(=O)Nc4cc(C)on4)c(Cl)c3)c2cc1OC [Tivozanib] + O=C(CCCCCCC(=O)Nc1ccccc1)NO [Vorinostat] (partner 1 µM) too.
Ans. 0.612

* * *

Entries and their relative viability values follow.
- Tested on: HCC-15
- procedure.text: relative viability (nuclei count vs DMSO), 5 days (fraction); higher = more cells survive
- condition: first compound 0.000632 µM
Answer with a bare number; do not write a unit.

>>> observed_measurement("CC(=O)O[C@@]12CO[C@@H]1C[C@H](O)[C@@]1(C)C(=O)[C@H](O)C3=C(C)[C@@H](OC(=O)[C@H](O)[C@@H](NC(=O)OC(C)(C)C)c4ccccc4)C[C@@](O)([C@@H](OC(=O)c4ccccc4)[C@H]21)C3(C)C [Docetaxel] + CC(C)C[C@H](NC(=O)[C@H](Cc1ccccc1)NC(=O)c1cnccn1)B(O)O [Bortezomib] (partner 0.002 µM)")
0.78

Qu. Which relative viability is listed for CC(=O)O[C@@]12CO[C@@H]1C[C@H](O)[C@@]1(C)C(=O)[C@H](O)C3=C(C)[C@@H](OC(=O)[C@H](O)[C@@H](NC(=O)OC(C)(C)C)c4ccccc4)C[C@@](O)([C@@H](OC(=O)c4ccccc4)[C@H]21)C3(C)C [Docetaxel] + C[C@]1(O)C[C@@H](c2nc(-c3ccc4ccc(-c5ccccc5)nc4c3)c3c(N)nccn32)C1 [Linsitinib] (partner 1 µM) ?
Ans. 0.479

Qu. Please give the result for CC(=O)O[C@@]12CO[C@@H]1C[C@H](O)[C@@]1(C)C(=O)[C@H](O)C3=C(C)[C@@H](OC(=O)[C@H](O)[C@@H](NC(=O)OC(C)(C)C)c4ccccc4)C[C@@](O)([C@@H](OC(=O)c4ccccc4)[C@H]21)C3(C)C [Docetaxel] + O=C(CCCCCCC(=O)Nc1ccccc1)NO [Vorinostat] (partner 1 µM) too.
Ans. 0.574
